molecular target: CYP3A4 (Homo sapiens); construct: host or cells: human liver microsomes; test: CYP3A4 inhibition (midazolam metabolism in human liver microsomes); type: in vitro ADME; settings: substrate midazolam
Sequence (P08684 whole entry): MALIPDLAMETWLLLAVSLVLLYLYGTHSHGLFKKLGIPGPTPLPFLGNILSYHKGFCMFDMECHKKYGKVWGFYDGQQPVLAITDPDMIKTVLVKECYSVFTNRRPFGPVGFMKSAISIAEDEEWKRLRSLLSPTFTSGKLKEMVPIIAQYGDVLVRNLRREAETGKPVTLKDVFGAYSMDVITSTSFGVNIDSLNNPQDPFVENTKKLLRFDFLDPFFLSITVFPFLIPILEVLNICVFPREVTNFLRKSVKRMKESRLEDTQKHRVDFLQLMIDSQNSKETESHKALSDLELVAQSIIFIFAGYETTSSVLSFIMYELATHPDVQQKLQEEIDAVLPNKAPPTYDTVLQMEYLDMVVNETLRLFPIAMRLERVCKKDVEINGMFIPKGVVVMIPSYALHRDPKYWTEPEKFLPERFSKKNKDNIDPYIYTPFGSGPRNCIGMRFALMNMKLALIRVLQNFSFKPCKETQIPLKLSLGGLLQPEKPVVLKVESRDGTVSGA
Measured Endpoint: pKi
pKi field: float, defined as -log10 of concentration (mol/L).

Molecule	Measured Endpoint	Measured Result
Cc1cc(C(=O)N[C@@H](Cc2ccccc2)[C@H](O)CNCc2cncc(C(C)(C)C)c2)cc(C(=O)N2CCC[C@@H]2c2nc(C)co2)c1 [2-3, reference compound]	pKi	6.14

Okay, next one:
Answer with reported pKi of "Cc1coc([C@H]2CCCN2C(=O)c2cccc(C(=O)N[C@@H](Cc3ccccc3)[C@H](O)[C@H]3C[C@@H](OCc4ccccc4)CN3)c2)n1"
4.94

====

target: memapsin 2 (Cricetulus griseus); construct: endogenous in cells; assay: Cellular Aβ IC50 determination (Aβ40 sandwich ELISA); conditions: CHO cells over-expressing human APP695 with London and Swedish mutations, 24 h, read-out: M2 IC50
Measured Endpoint: IC50

Compound	IC50
Cc1coc([C@H]2CCCN2C(=O)c2cccc(C(=O)N[C@@H](Cc3ccccc3)[C@H](O)CNCc3cncc(C(C)(C)C)c3)c2)n1 [2-4, reference compound]	< 500 nM

Answer with reported IC50 of "Cc1csc([C@H]2CCCN2C(=O)c2cc(C(=O)N[C@@H](Cc3ccccc3)[C@H](O)[C@H]3CCCN3)cc(-c3cnccn3)c2)n1"
< 500 nM

Answer with reported IC50 of "Cc1csc([C@H]2CCCN2C(=O)c2cc(C(=O)N[C@@H](Cc3ccccc3)[C@H](O)[C@H]3CCCN3)cc(-n3cccc3)c2)n1"
500 to 1000 nM

====

Observed pKi for memapsin 2 (Homo sapiens), reported per entry below.
pKi: −log10 of the molar value.

Example compounds with recorded pKi:
Compound	pKi
Cc1csc(CN(C)C(=O)c2cccc(C(=O)N[C@@H](Cc3cc(F)cc(F)c3)[C@H](O)[C@H]3CCCN3)c2)n1	> 6.60
CO[C@H]1CN[C@@H]([C@@H](O)[C@H](Cc2ccccc2)NC(=O)c2cc(C(=O)N3CCC[C@@H]3c3nc(C)cs3)cc(-c3ncco3)c2)C1	> 6.60
Cc1coc([C@H]2CCCN2C(=O)c2cccc(C(=O)N[C@@H](Cc3ccccc3)[C@H](O)[C@H]3CCCN3C(=O)OC(C)(C)C)c2)n1	< 6.12
Cc1csc([C@H]2CCCN2C(=O)c2cc(C(=O)N[C@@H](Cc3ccccc3)[C@H](O)[C@H]3CCCN3)cc(C3CC3)c2)n1	> 6.60

Output reported pKi of the compound "Cc1csc(CN(C)C(=O)c2cc(C(=O)N[C@@H](Cc3ccccc3)[C@H](O)[C@H]3CCCN3)cc(-n3cccc3)c2)n1" on memapsin 2 (Homo sapiens).
Sequence (P56817 46-501): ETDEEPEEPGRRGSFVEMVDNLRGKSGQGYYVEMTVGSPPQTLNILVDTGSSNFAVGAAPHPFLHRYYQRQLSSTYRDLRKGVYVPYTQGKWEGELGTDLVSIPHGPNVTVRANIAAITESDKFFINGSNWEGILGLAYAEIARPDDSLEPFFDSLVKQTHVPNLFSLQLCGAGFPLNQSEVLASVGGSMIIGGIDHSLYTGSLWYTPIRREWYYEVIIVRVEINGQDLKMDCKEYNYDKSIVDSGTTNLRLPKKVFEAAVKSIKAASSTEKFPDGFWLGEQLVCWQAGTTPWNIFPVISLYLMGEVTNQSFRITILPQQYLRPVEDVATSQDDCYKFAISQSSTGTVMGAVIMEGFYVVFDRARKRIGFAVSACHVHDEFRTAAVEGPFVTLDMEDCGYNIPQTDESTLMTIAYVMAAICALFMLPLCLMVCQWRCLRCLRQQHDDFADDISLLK
> 6.60

Output reported pKi of the compound "Cc1csc(CN(C)C(=O)c2cc(C(=O)N[C@@H](Cc3ccccc3)[C@H](O)[C@H]3CCCN3C(=O)OC(C)(C)C)cc(-c3ncco3)c2)n1" on memapsin 2 (Homo sapiens).
< 6.12

====

molecular target: memapsin 2 (Cricetulus griseus, UniProt G3IAK4); construct: endogenous in cells; test: Cellular Aβ IC50 determination (Aβ40 sandwich ELISA); settings: CHO cells over-expressing human APP695 with London and Swedish mutations, 24 h, read-out: M2 IC50
Sequence (G3IAK4 22-501): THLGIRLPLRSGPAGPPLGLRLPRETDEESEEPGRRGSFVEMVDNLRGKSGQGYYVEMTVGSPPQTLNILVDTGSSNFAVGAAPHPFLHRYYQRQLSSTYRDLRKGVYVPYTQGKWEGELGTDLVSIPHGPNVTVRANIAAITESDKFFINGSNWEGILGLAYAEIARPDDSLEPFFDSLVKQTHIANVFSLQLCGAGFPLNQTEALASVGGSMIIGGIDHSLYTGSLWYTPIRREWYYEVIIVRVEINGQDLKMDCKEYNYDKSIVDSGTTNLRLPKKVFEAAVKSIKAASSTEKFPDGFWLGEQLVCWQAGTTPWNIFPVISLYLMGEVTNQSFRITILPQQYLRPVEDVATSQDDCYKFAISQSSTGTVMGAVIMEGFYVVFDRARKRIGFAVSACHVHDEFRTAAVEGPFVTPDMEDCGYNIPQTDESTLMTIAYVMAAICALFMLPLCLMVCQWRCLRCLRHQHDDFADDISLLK
Measured Endpoint: IC50

Example molecules with recorded IC50:
Molecule	Study Target	IC50
Cc1csc([C@H]2CCCN2C(=O)c2cc(C(=O)N[C@@H](Cc3ccccc3)[C@H](O)[C@H]3CCCN3)cc(-c3ncco3)c2)n1 [1-19]	memapsin 2 (Cricetulus griseus, UniProt G3IAK4)	< 500 nM
Cc1csc(CN(C)C(=O)c2cc(C(=O)N[C@@H](Cc3ccccc3)[C@H](O)[C@H]3CCCN3)cc(N(C)S(C)(=O)=O)c2)n1 [1-27]	memapsin 2 (Cricetulus griseus, UniProt G3IAK4)	< 500 nM
Cc1cc(C(=O)N[C@@H](Cc2ccccc2)[C@H](O)CNCc2cncc(C(C)(C)C)c2)cc(C(=O)N2CCC[C@@H]2c2nc(C)co2)c1 [2-3, reference compound]	memapsin 2 (Cricetulus griseus, UniProt G3IAK4)	< 500 nM
Cc1csc([C@H]2CCCN2C(=O)c2cccc(C(=O)N[C@@H](Cc3cccc(F)c3)[C@H](O)[C@H]3CCCN3)c2)n1 [1-53]	memapsin 2 (Cricetulus griseus, UniProt G3IAK4)	500 to 1000 nM

Answer with reported IC50 of Cc1csc([C@H]2CCCN2C(=O)c2cccc(C(=O)N[C@@H](Cc3ccccc3)[C@H](O)[C@H]3C[C@@H](OCc4ccccc4)CN3)c2)n1 [1-22]
< 500 nM

Answer with reported IC50 of Cc1csc(CN(C)C(=O)c2cccc(C(=O)N[C@@H](Cc3cc(F)cc(F)c3)[C@H](O)[C@H]3CCCN3)c2)n1 [1-41]
> 1000 nM

Answer with reported IC50 of Cc1csc([C@H]2CCCN2C(=O)c2cc(C(=O)N[C@@H](Cc3ccccc3)[C@H](O)[C@H]3C[C@@H](OCc4ccccc4)CN3)cc(-n3cccc3)c2)n1 [1-25]
< 500 nM

Answer with reported IC50 of Cc1coc([C@H]2CCCN2C(=O)c2cc(C(=O)N[C@@H](Cc3ccccc3)[C@H](O)[C@H]3CCCN3)cc(-c3ccccn3)c2)n1 [1-24]
< 500 nM

Answer with reported IC50 of Cc1coc([C@H]2CCCN2C(=O)c2cccc(C(=O)N[C@@H](Cc3ccccc3)[C@H](O)[C@H]3C[C@@H](OCc4ccccc4)CN3)c2)n1 [1-18]
< 500 nM

Answer with reported IC50 of Cc1csc([C@H]2CCCN2C(=O)c2cc(C(=O)N[C@@H](Cc3ccccc3)[C@H](O)[C@H]3CCCN3)cc(-c3cccc(C(F)(F)F)c3)c2)n1 [1-43]
> 1000 nM

Answer with reported IC50 of Cc1csc([C@H]2CCCN2C(=O)c2cccc(C(=O)N[C@@H](Cc3ccccc3)[C@H](O)[C@@H]3CCCN3)c2)n1 [1-48]
> 1000 nM

Cited source: patent US20120214802A1
